tested on: NCI-H520; test: In vitro growth inhibitory activity against human neoplastic NCI-H520 cell line; type: functional
EXPERIMENTAL ENDPOINT: GI50 (nM)
# unit: nM | format: bare number

• COc1cc2c(c(OC)c1OC)C(c1cccc(OC)c(=O)c1)CC2 (centres undefined) = 5400

For COc1ccc(C2CCc3cc(OC)c(OC)c(OC)c32)cc1O (centres undefined) , what is its reported GI50?
100

###

assay: Selectivity ratio expressed as temperature dependence at 45 Degree C to that of 30 Degree C in bovine brain tubulin; type: functional
EXPERIMENTAL ENDPOINT: Selectivity
Reply: number alone, nothing else.

The following compounds have reported results that may help.
* CCOc1cccc(C2CCc3cc(OC)c(OC)c(OC)c32)cc1=O (configuration not stated) | 1.7
* COc1cc(C2CCc3cc(OC)c(OC)c(OC)c32)ccc1O (configuration not stated) | 0

Please report the recorded Selectivity for COc1cc2c(c(OC)c1OC)C(c1cccc(Br)c(=O)c1)CC2 (configuration not stated) .
1.45

Look at this compound and give its reported Selectivity. CNc1cccc(C2CCc3cc(OC)c(OC)c(OC)c32)cc1=O (configuration not stated)
1.3

Recorded Selectivity of COc1ccc(C2CCc3cc(OC)c(OC)c(OC)c32)cc1O (configuration not stated) , please.
1.1

Value lookup for Selectivity; key = COc1cc2c(c(OC)c1OC)C(c1cccc(N)c(=O)c1)CC2 (configuration not stated)
1.25

// lookup Selectivity for COc1cc2c(c(OC)c1OC)C(c1cccc(OC)c(=O)c1)CC2 (configuration not stated)
5.7

###

molecular target: Tubulin (Bos taurus, UniProt Q6B856+Q862L2+Q862F3); experiment: Inhibition of tubulin polymerization activity using homogenous bovine brain tubulin at 30 degree C; format: functional
The label is Fulfilled for IC50 below 30 µM and Not fulfilled for IC50 equal to or exceeding 30 µM.

Solved cases (4 shown):
• COc1cc2c(c(OC)c1OC)C(c1cccc(OC)c(=O)c1)CC2 (configuration not stated) = Not fulfilled
• CCOc1cccc(C2CCc3cc(OC)c(OC)c(OC)c32)cc1=O (configuration not stated) = Fulfilled
• COc1ccc(C2CCc3cc(OC)c(OC)c(OC)c32)cc1O (configuration not stated) = Fulfilled
• COc1cc(C2CCc3cc(OC)c(OC)c(OC)c32)ccc1O (configuration not stated) = Not fulfilled

Then this molecule:
Quick check: IC50 of COc1cc2c(c(OC)c1OC)C(c1cccc(Br)c(=O)c1)CC2 (configuration not stated) under 30 µM?
Not fulfilled

###

Entries and their IC50 values follow.
biological target: Tubulin (Bos taurus, UniProt Q6B856+Q862L2+Q862F3); assay: Inhibition of tubulin polymerization activity using homogenous bovine brain tubulin at 45 degree C; assay type: functional
The reply should contain only the number, in µM.

See these solved cases before continuing.
* COc1ccc(C2CCc3cc(OC)c(OC)c(OC)c32)cc1O (stereo unspecified) | 10.9
* COc1cc2c(c(OC)c1OC)C(c1cccc(OC)c(=O)c1)CC2 (stereo unspecified) | 19
* COc1cc2c(c(OC)c1OC)C(c1cccc(N)c(=O)c1)CC2 (stereo unspecified) | 23.6
* CCOc1cccc(C2CCc3cc(OC)c(OC)c(OC)c32)cc1=O (stereo unspecified) | 18
* COc1cc2c(c(OC)c1OC)C(c1cccc(Br)c(=O)c1)CC2 (stereo unspecified) | 22

The record that follows has no IC50 shown yet.
# query: IC50 of entry COc1cc(C2CCc3cc(OC)c(OC)c(OC)c32)ccc1O (stereo unspecified)
46.4

The reported numbers originate from ChEMBL document CHEMBL1131927.
